tested on: Pseudomonas aeruginosa PAO1 CECT 4122 (ATCC 15692); test: MIC microdilution, P. aeruginosa; format: cell-based; conditions: Pseudomonas aeruginosa; planktonic cells, lowest concentration completely inhibiting growth; read-out: P. aeruginosa MIC100
readout-label: MIC

Take a look at these entries with their results.
NC(=S)NN=Cc1ccc(CN2CCOCC2)cn1 [HL^1]: > 500 µg/mL
CSC(=N)NN=Cc1ccc(CN2CCOCC2)cn1 [HL^6]: > 500 µg/mL

Now look at this one.
Value lookup for MIC; key = S=C(NN=Cc1ccc(CN2CCOCC2)cn1)Nc1ccccc1 [HL^5]
> 500 µg/mL

----------
system: A2780cisR cells; assay: MTT cytotoxicity assay, A2780cisR; assay type: cell-based, human; settings: IC50(A2780cisR)/IC50(A2780)
Hi, to clarify the labels: fulfilled covers RF (resistance factor) from 6 upward, not fulfilled covers anything below 6.

Please review the following examples before continuing.
[Cl][Cu][Cl] [CuCl2, reference compound]: not fulfilled
[Cl][Cu][S]C(=NN=Cc1ccc(CN2CCOCC2)cn1)Nc1ccccc1 [complex 5, [Cu(L^5)Cl]]: not fulfilled
N.N.[Cl][Pt][Cl] [cisplatin, reference compound]: fulfilled

Alright, here's another compound for you.
Check if RF (resistance factor) >= 6 (inclusive). Item: CN(C)C(=NN=Cc1ccc(CN2CCOCC2)cn1)[S][Cu][Cl] [complex 2, [Cu(L^2)Cl]]
not fulfilled

Measured values drawn from paper PMC6348444 for this set.
